tested on: bees; conditions: Li-salt 25 mM in sucrose syrup for 7 days; 50 bees per cage; mean of three replicates
OBSERVED PROPERTY: Number of dead bees, Day 7
The answer should be written as a number, with no unit following it.

>  <COMPOUND>
O=S(=O)([O-])[O-].[Li+].[Li+] [Li-sulfate, lithium sulfate]

>  <Number of dead bees, Day 7>
0.0

$$$$

Tell me the measured Number of dead bees, Day 7 of CC(O)C(=O)[O-].[Li+] (stereo not shown) [Li-lactate, lithium lactate] , please.
1.7

# repeat for O=C([O-])[O-].[Li+].[Li+] [Li-carbonate, lithium carbonate]
0.7

Item: O=C([O-])CC(O)(CC(=O)[O-])C(=O)[O-].[Li+].[Li+].[Li+] [Li-citrate, lithium citrate]
0.3

====

Number of dead bees, Day 3 values, listed per item
Test system: bees
Conditions: Li-salt 25 mM in sucrose syrup for 7 days; 50 bees per cage; mean of three replicates
From the text: The bees were fed with Li-salt/sucrose solutions for 7 days. Survival rate of bees and mites were monitored daily and dead bees or mites were removed.
Quick one: just the number, no unit, thanks!

>  <MOLECULE>
O=S(=O)([O-])[O-].[Li+].[Li+] [Li-sulfate, lithium sulfate]

>  <NUMERIC RESULT>
0.0

$$$$

// lookup Number of dead bees, Day 3 for CC(O)C(=O)[O-].[Li+] (stereo not shown) [Li-lactate, lithium lactate]
0.0

Same read-out for O=C([O-])[O-].[Li+].[Li+] [Li-carbonate, lithium carbonate] ?
0.0

Next up: O=C([O-])CC(O)(CC(=O)[O-])C(=O)[O-].[Li+].[Li+].[Li+] [Li-citrate, lithium citrate]
0.3

====

tested on: bees; details: Li-salt 25 mM in sucrose syrup for 7 days; 50 bees per cage; mean of three replicates
# maps each entry to its Number of dead bees, Day 5
Response field accepts a number only; no unit should be typed.

>  <COMPOUND>
O=C([O-])[O-].[Li+].[Li+] [Li-carbonate, lithium carbonate]

>  <Number of dead bees, Day 5>
0.0

$$$$
>  <COMPOUND>
CC(O)C(=O)[O-].[Li+] (stereo not shown) [Li-lactate, lithium lactate]

>  <Number of dead bees, Day 5>
2.0

$$$$
>  <COMPOUND>
O=C([O-])CC(O)(CC(=O)[O-])C(=O)[O-].[Li+].[Li+].[Li+] [Li-citrate, lithium citrate]

>  <Number of dead bees, Day 5>
0.7

$$$$

Please turn your attention to the following entry.
Tell me reported Number of dead bees, Day 5 for O=S(=O)([O-])[O-].[Li+].[Li+] [Li-sulfate, lithium sulfate] , tested with bees.
3.7

====

Measured Number of dead mites, Day 7 values are reported for all entries that follow.
tested on: Varroa destructor; settings: Li-salt 25 mM in sucrose syrup for 7 days; 25 mites per cage; mean of three replicates
In your answer, state the number alone without any accompanying words.

Below are worked cases with known answers.
>  <MOLECULE>
O=C([O-])[O-].[Li+].[Li+] [Li-carbonate, lithium carbonate]

>  <Number of dead mites, Day 7>
0.0

$$$$
>  <MOLECULE>
O=S(=O)([O-])[O-].[Li+].[Li+] [Li-sulfate, lithium sulfate]

>  <Number of dead mites, Day 7>
0.0

$$$$
>  <MOLECULE>
O=C([O-])CC(O)(CC(=O)[O-])C(=O)[O-].[Li+].[Li+].[Li+] [Li-citrate, lithium citrate]

>  <Number of dead mites, Day 7>
0.0

$$$$

Then there is this molecule:
Entry CC(O)C(=O)[O-].[Li+] (stereo not shown) [Li-lactate, lithium lactate] has what Number of dead mites, Day 7?
0.0
